# Test system: NCI/ADR-RES ovarian
# assay_comment: NCI-60 one-dose screen, 48 h (100 = growth as untreated, 0 = no growth, -100 = all killed)
# settings: 10 µM unless noted
This is part of a sample that, as a whole, favours compounds with a hit. Of some 83,000 tested, about 20% had one in any assay.
measurement_label: growth (%)
Hi! Could you send only the number? It should be in %, unit omitted.

Examples from the recorded data:
CCOC(=O)c1ccc(NC(=O)CSC(N)=O)cc1	99.3
COc1cc(NCCC2CCCCN2)c2ncccc2c1OC (stereo unspecified)	81.7

Task: Kindly state the measured growth obtained for `N/C(=C\C(=O)n1nc(-c2ccccc2)cc1N)c1ccccc1` with NCI/ADR-RES ovarian.
Output: 17

Task: Then what about the compound `C[N+](C)(C)CC(=O)N/N=C\c1ccco1` ?
Output: 111

Task: What do we get for `CS(=O)(=O)c1ccc(C(=O)N/N=C/c2ccccc2Cl)cc1` ?
Output: 106

Task: And for `Cc1c2c(cc3c1[nH]c1ccccc13)C=NCC2` ?
Output: 85.6

====

# System: NCI-H23 lung
# assay_comment: NCI-60 one-dose screen, 48 h (100 = growth as untreated, 0 = no growth, -100 = all killed)
# settings: 10 µM unless noted
About 83,000 compounds went through this panel and 20% of them were active in at least one assay; those are over-represented in the sample as a whole.
If the reported growth equals or exceeds 90%, assign y. If not, assign n.

CCNCCCn1c2c(c3ccc(Cl)cc3c1=O)C(=O)c1cc(OC)cnc1-2	n
CCCCSc1ncnc2c1ncn2C1CCCCO1 (stereo unspecified)	y
COc1cc([N+](=O)[O-])cc(OC)c1OC	y

Task: Check the entry `Nc1nc(NC2CC2)cc(-c2cccc(Cl)c2Cl)n1` : does growth equal or exceed 90%?
Output: n

Task: Try this compound too: `CC(C)CCSc1nc(Nc2ccccc2)c(C#N)c(-c2ccc(F)cc2)n1`
Output: n

Task: Now give it for `O=C(Nc1cccc(N=Cc2c(O)ccc3ccccc23)c1)c1ccccc1` too.
Output: y

Task: Could you do the same for `COc1ccc(/C=C/C(=O)CCC(=O)O)cc1OC` , please?
Output: y

Task: Again, but for `C[C@H](NC(=O)c1snnc1C1CC1)c1c(F)cccc1Cl`
Output: y

Task: Please do the same for `Fc1ccc(-c2nc(-c3ccc(-c4nc5ccc(F)cc5[nH]4)cc3)no2)cc1` as well.
Output: n

Task: What do you get for `O=C(Nc1cccc(C2=NCCN2)c1)c1ccc(N=Nc2ccc(C(=O)Nc3cccc(C4=NCCN4)c3)cc2)cc1` ?
Output: n

Task: Lookup `O=c1nc(-c2ccccc2)c2cc(-c3ccc(N4CCOCC4)cc3)ccc2[nH]1`
Output: n

====

# System: SF-539 CNS
# assay_comment: NCI-60 one-dose screen, 48 h (100 = growth as untreated, 0 = no growth, -100 = all killed)
# settings: 10 µM unless noted
About 83,000 compounds went through this panel and 20% of them were active in at least one assay; those are over-represented in the sample as a whole.
measurement_label: growth (%)
Your answer is read as %, so omit the unit and give the number.

CCN(CC)c1ccc(/C=C2/NC(=O)NC2=O)cc1	6.57
CCOC(=O)C1=C(C)NC(=S)NC1c1ccccc1 (stereo unspecified)	97.2
CSC1=N/C(=C\c2cccc(OCc3ccc(Cl)cc3)c2)C(=O)N1	99
COc1cc(Nc2ncccc2/C=C/C(=O)c2cc(OC)c(OC)c(OC)c2)cc(OC)c1OC	78.9
CCOC(=O)Cn1c(-c2nonc2NC(=O)c2ccccc2F)nc2ccccc21	44.7
N#CCCn1cnc2c(N)ncnc21	97.8

Task: May I ask what growth has been recorded for COc1cc(NCCC2CCCCN2)c2ncccc2c1OC (stereo unspecified) ?
Output: 92

Task: # iterate: `COc1cnc2c(c1)C(=O)c1c-2n(CCCNC(C)C)c(=O)c2cc(Cl)ccc12`
Output: -97.3

Task: Cool, now Cc1nn(-c2ccccc2)c2nc3c(nc12)C1=NCCN1C(c1ccc(Cl)cc1)N3 (stereo unspecified)
Output: 95.1

Task: Next up: CC(CN1CCN(CC(C)Nc2ccnc3cc(Cl)ccc23)CC1)Nc1ccnc2cc(Cl)ccc12 (stereo unspecified)
Output: -82.4

Task: Can you handle `O=C(Nc1ccc(Br)cc1)Nc1cccc(Br)c1` next?
Output: 76.6
